- System: Histone deacetylase 8 (Homo sapiens)
- Measurement Notes: Inhibition of full length human recombinant KDAC8 using fluorophore-conjugated substrate measured as fluorigenic release of 7-amino-4-methylcoumarin by microtiter plate reader analysis
pIC50: −log10 of the molar value.
Measured Property: pIC50

{"Structure String": "CCCCCCCC(=O)SCC/C=C/[C@@H]1CC(=O)NCc2nc(cs2)C2=N[C@@](C)(CS2)C(=O)N[C@@H](C(C)C)C(=O)O1", "System": "Histone deacetylase 8 (Homo sapiens)", "Endpoint Value": "< 4.52"}

----------
- System: Histone deacetylase 8 (Homo sapiens, UniProt Q9BY41)
- Sequence (Q9BY41 whole entry): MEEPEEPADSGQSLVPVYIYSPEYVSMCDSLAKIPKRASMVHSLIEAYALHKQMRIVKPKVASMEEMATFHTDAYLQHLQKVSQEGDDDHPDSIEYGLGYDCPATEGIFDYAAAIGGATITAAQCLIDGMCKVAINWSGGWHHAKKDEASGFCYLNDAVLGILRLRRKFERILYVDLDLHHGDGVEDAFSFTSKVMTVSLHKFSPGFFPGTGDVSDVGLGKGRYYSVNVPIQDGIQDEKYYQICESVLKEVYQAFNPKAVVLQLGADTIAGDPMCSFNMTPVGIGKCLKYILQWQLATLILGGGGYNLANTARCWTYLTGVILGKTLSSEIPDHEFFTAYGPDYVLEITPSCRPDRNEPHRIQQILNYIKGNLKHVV
- Measurement Notes: Inhibition of human KDAC8 by fluorescence assay
pIC50: −log10 of the molar value.

{"Structure String": "Nc1ccccc1NC(=O)c1ccc(-c2cn(CCc3ccsc3)nn2)cc1", "System": "Histone deacetylase 8 (Homo sapiens, UniProt Q9BY41)", "pIC50": "< 4.52"}

----------
- System: Histone deacetylase 8 (Homo sapiens)
- Sequence (Q9BY41 whole entry): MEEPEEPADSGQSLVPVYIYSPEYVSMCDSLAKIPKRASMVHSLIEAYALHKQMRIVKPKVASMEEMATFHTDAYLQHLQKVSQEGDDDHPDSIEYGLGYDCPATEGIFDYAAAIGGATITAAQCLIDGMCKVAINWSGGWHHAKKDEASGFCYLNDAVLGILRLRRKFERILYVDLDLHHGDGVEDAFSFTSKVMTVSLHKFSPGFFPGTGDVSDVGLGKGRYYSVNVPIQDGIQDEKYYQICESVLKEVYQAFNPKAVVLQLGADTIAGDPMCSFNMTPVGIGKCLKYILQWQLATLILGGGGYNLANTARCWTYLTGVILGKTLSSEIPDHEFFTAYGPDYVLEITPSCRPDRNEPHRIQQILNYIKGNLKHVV
- Measurement Notes: Inhibition of recombinant human KDAC8 using FAM-labelled substrate B incubated for 60 mins by microfluidic chip-based assay
pIC50: −log10 of the molar value.

{"Structure String": "CC(C)[C@@H]1NC(=O)[C@@H]2CCCN2C(=O)[C@H]2CCCN2C(=O)C[C@@H](C(=O)NCCCC(=O)NO)NC1=O", "System": "Histone deacetylase 8 (Homo sapiens)", "pIC50": "< 4.52"}
{"Structure String": "CC(C)[C@@H]1NC(=O)[C@H]2CCCN2C(=O)[C@@H]2CCCN2C(=O)C[C@H](C(=O)NCCCC(=O)NO)NC1=O", "System": "Histone deacetylase 8 (Homo sapiens)", "pIC50": "< 4.52"}

----------
- System: Histone deacetylase 3 (Homo sapiens, UniProt O15379)
- Sequence (O15379 whole entry): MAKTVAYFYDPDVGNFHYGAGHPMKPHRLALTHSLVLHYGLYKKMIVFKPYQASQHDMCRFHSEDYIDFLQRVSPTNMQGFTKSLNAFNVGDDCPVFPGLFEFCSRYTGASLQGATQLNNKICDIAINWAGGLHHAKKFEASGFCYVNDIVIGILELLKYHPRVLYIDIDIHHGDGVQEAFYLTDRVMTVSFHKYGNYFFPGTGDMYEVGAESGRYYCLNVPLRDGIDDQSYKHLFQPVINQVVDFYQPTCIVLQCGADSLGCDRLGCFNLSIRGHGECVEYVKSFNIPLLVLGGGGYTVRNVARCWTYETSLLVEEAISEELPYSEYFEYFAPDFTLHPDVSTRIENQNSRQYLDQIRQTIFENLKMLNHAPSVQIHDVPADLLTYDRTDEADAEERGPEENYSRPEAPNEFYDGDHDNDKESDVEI
- Measurement Notes: Inhibition of recombinant human KDAC3 using FITC-p53 acetylated peptide substrate incubated for 60 mins by microfluidic chip-based assay
pIC50: −log10 of the molar value.

{"Structure String": "CC(C)[C@@H]1NC(=O)[C@H]2CCCN2C(=O)[C@@H]2CCCN2C(=O)C[C@H](C(=O)NCCCC(=O)NO)NC1=O", "Value Relation Sign": "<", "pIC50": 4.52}
{"Structure String": "CC(C)[C@@H]1NC(=O)[C@@H]2CCCN2C(=O)[C@H]2CCCN2C(=O)C[C@@H](C(=O)NCCCC(=O)NO)NC1=O", "Value Relation Sign": "=", "pIC50": 4.86}

----------
- System: Histone deacetylase 8 (Homo sapiens, UniProt Q9BY41)
- Measurement Notes: Inhibition of human KDAC8

{"Structure String": "CC(=O)SCC/C=C/[C@@H]1CC(=O)NCc2ccc(cc2)C2=N[C@@](C)(CS2)C(=O)N[C@@H](C(C)C)C(=O)O1", "IC50": "> 30 µM"}

----------
- System: UniProtKB O15379
- Measurement Notes: Inhibition of human KDAC3
Measured Property: IC50 (nM)

{"Structure String": "CC(=O)SCC/C=C/[C@@H]1CC(=O)NCc2ccc(cc2)C2=N[C@@](C)(CS2)C(=O)N[C@@H](C(C)C)C(=O)O1", "Endpoint Value": 470}
